FYI, the data here is from paper PMC3877016.

Target: BRDT tandem bromodomains [BD1 BD2] (Homo sapiens)
Assay: TR-FRET competition assay, tandem bromodomains
Experimental: For inhibition assays, serially diluted compound was added to these reactions in a 0.2% final concentration of DMSO. Final buffer concentrations were 30 mM HEPES pH 7.4, 30 mM NaCl, 0.3 mM CHAPS, 20 mM PO4 pH 7.0, 320 mM KF, 0.08% BSA). After 2 h incubation at room temperature, the fluorescence by FRET was measured at 665 and 620 nm by a SynergyH4 plate reader (Biotek). IC50 values were determined from a dose response curve.
REPORTED ENDPOINT: IC50 (nM)

>>> df
                               input_smiles  quantitative_readout
0  COc1cc(OC)c2c(=O)[nH]c(-c3cc(C)c(OCCO)c(C)c3)nc2c1                  1450
